- Assayed target: AChE from Electrophorus electricus (Electrophorus electricus, UniProt O42275)
- Sequence (O42275 24-633): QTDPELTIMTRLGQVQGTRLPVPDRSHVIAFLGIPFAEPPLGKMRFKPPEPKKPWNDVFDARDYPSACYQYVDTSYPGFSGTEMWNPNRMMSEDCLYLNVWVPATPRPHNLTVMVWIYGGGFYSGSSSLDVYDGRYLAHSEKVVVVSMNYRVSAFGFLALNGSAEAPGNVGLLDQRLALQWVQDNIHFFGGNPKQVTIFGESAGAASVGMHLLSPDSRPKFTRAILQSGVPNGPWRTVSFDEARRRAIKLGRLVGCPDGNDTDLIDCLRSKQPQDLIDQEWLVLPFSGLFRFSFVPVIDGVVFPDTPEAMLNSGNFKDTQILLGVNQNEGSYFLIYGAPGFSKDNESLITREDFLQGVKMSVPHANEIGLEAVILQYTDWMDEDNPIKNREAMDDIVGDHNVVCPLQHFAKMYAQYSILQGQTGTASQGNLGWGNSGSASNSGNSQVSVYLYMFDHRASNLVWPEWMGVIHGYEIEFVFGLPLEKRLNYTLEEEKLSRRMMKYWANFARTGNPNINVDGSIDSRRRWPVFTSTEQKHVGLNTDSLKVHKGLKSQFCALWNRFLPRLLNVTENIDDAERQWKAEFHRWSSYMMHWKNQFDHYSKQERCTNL
pIC50: −log10 of the molar value.
Some molecules, each annotated with its measured pIC50.

{"Mol": "COc1c(CC=C(C)C)c(O)cc2oc(=O)c3c4ccc(O)cc4oc3c12", "Assayed target": "AChE from Electrophorus electricus (Electrophorus electricus, UniProt O42275)", "pIC50": 4.83}
{"Mol": "O=C1C[C@@H](c2ccc(O)cc2)Oc2cc(O)ccc21", "Assayed target": "AChE from Electrophorus electricus (Electrophorus electricus, UniProt O42275)", "pIC50": "< 4.40"}
{"Mol": "O=C(/C=C/c1ccc(O[C@@H]2O[C@H](CO)[C@@H](O)[C@H](O)[C@H]2O)cc1)c1ccc(O)cc1O", "Assayed target": "AChE from Electrophorus electricus (Electrophorus electricus, UniProt O42275)", "pIC50": "< 4.40"}
{"Mol": "O=C1C[C@@H](c2ccc(O[C@@H]3O[C@H](CO)[C@@H](O)[C@H](O)[C@H]3O)cc2)Oc2cc(O)ccc21", "Assayed target": "AChE from Electrophorus electricus (Electrophorus electricus, UniProt O42275)", "pIC50": "< 4.40"}

Reference source: paper PMC7504216
